Recorded % bound by entry
target: T1, human collagen type I, acid soluble, extracted from placenta (Sigma C7774) (human, UniProt P02452 162-1218; P08123 80-1119); assay: dried collagen assay; further: test concentration or dose not given here
T1 construct: tissue extract, gelled and dried in wells; also called dried human collagen; h-Collagen
T1 sequence (P02452 162-1218 limits assumed, chain 1 of 2): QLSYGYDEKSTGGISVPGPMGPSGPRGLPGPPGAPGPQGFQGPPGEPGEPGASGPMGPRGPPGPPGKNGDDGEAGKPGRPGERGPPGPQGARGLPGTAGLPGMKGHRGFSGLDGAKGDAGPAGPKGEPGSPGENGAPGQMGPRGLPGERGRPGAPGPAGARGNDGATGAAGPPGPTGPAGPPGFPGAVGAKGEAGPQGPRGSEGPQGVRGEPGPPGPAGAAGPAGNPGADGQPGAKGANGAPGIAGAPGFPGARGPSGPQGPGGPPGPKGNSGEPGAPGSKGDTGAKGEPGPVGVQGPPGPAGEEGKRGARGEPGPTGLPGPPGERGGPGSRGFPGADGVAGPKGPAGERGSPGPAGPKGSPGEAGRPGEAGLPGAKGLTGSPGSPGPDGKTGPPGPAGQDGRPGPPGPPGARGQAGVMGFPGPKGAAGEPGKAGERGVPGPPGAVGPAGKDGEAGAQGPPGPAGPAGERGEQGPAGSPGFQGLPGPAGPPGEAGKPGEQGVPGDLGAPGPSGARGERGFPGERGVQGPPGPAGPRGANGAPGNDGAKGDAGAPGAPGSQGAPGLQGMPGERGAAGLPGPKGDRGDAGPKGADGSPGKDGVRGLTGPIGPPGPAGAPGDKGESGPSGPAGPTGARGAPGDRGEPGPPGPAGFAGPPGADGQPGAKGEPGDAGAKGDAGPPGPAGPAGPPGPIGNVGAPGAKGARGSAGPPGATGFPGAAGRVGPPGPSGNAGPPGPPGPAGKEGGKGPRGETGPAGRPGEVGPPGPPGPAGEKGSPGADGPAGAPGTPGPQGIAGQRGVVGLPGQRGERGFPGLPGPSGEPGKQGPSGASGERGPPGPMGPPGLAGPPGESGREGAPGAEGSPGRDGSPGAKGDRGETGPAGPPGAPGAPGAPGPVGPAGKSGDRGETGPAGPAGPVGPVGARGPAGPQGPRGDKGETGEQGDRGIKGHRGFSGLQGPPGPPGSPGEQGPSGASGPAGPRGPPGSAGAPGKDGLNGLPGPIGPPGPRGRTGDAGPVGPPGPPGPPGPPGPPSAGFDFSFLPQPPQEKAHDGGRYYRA
T1 sequence (P08123 80-1119 limits assumed, chain 2 of 2): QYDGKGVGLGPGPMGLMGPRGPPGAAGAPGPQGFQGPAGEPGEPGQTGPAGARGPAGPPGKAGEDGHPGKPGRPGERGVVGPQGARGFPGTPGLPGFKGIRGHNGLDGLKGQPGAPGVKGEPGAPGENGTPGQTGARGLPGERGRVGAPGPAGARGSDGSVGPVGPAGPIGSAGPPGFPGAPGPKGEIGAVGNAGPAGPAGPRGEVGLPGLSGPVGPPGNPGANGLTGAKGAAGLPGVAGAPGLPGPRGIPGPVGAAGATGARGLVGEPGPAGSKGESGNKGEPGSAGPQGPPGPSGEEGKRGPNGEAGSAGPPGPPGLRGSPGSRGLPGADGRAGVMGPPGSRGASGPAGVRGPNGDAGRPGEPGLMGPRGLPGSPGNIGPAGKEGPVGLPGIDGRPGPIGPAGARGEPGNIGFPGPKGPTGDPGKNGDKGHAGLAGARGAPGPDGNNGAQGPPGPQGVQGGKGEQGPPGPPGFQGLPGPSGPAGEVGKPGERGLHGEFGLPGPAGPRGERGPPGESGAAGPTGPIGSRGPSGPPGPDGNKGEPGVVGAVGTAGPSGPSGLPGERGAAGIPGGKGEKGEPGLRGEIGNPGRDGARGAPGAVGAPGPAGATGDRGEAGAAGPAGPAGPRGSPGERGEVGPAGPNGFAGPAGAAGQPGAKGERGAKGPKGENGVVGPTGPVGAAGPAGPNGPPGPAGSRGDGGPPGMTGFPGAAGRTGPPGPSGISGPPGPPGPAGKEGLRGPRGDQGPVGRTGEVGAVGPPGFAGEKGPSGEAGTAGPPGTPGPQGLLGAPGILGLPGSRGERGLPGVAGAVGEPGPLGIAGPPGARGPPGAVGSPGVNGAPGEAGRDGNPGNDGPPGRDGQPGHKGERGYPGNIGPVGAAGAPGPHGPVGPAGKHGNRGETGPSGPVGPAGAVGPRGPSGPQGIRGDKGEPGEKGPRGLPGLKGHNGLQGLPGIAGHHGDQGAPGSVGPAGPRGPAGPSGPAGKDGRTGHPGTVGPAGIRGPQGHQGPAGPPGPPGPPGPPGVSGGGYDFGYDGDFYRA
Bridge positions count the residues as written; N and C are the ends. Ends that are not written are not given here.

| binder | % bound / % |
| --- | --- |
| DWTCRGDEYTWHCNYE (disulfide 4-13 (inferred), cyclic, disulfide) [SEQ ID NO 14] | 83 |
| DWTCSGNHLTWYCNYG (disulfide 4-13 (inferred), cyclic, disulfide) [SEQ ID NO 118] | 68 |
| DWICHGDFDTWKCDLQ (disulfide 4-13 (inferred), cyclic, disulfide) [SEQ ID NO 29] | 16 |
| SWNCHMIRNEWRCTGH (disulfide 4-13 (inferred), cyclic, disulfide) [SEQ ID NO 56] | 11 |

Cited source for all entries: patent US20080044360A1
